# study.target: T1, rat MASP-2cf CCP1-CCP2-SP (rat, UniProt Q9JJS8 298-685)
# T1 construct: range 298-685; Mw 42309 Da; also called rat MASP-2 catalytic fragment
# T1 sequence (Q9JJS8 other isoform, or with tags, fused parts or gaps limits assumed, form in doubt): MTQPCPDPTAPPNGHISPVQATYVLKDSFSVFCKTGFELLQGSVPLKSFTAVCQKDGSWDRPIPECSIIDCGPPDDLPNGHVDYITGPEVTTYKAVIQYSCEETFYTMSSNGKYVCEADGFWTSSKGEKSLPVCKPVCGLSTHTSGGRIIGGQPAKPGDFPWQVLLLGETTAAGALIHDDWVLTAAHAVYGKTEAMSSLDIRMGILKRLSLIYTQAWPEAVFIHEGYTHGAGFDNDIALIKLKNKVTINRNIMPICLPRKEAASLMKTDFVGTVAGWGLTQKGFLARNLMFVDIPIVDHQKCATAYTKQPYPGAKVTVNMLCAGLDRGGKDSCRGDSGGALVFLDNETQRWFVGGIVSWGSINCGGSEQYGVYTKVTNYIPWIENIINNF
# assay.protocol: SPR, target immobilised
Where no end group is shown, it is not given here.
readout: koff (s⁻¹)
Hi! Could you send only the number? It should be in s⁻¹, unit omitted.

As a guide, the following entries are already answered.
binder	koff (s⁻¹)
EVO22 (designed binder, not fully specified; cysteine pairing not given here, Modified TFPI-D2 Kunitz domain; made as m1) KPDFCFLENDPGPCRALKRRYFYNNQTKQCERFYYGGCLGNMNNFVTLEECKNICEDG	0.000256
EVO23 (designed binder, not fully specified; cysteine pairing not given here, Modified TFPI-D2 Kunitz domain; made as m1) KPDFCFLENDPGPCRALKRRYFYNNQTKQCERFYYGGCFGNMNNFVTLEECKNICEDG	0.000662
EVO2d (designed binder, not fully specified; cysteine pairing not given here, Modified TFPI-D2 Kunitz domain; made as m1) KPDFCFLEEDPGPCRALKRRYFYNNQTKQCERFKYGGCLGNMNNFETLEECKNICEDG	0.000438

// switching to the query binder
Request the reported koff associated with EVO2a (designed binder, not fully specified; cysteine pairing not given here, Modified TFPI-D2 Kunitz domain; made as m1) KPDFCFLENDPGPCRAVKRRYFYNNQTKQCERFKYGGCLGNMNNFETLEECKNICEDG
0.00151
